- study system: T1, SARS-COV-2 RBD (SARS-COV-2, UniProt P0DTC2 319-539)
- T1 construct: also called WT RBD
- run description: ELISA, RBD coated on plate
measurement kind: EC50 (ng/mL)
Give bare numbers, in ng/mL.

binder: C911 (antibody, V domains shown) VH: QVQLVESGGGVVQPGGSLRLSCAASAFTFSSYAMHWIRQSPGKGLEWVAVISSDGSSKFYADSVKGRFTISRDNSKNTLYLQMNSLSAEDTAVYYCARDLENVLIEVALQDWGQGTLVTVSS VL: DIQMTQSPSSLSASVGDRVTITCRASQSINSYLNWYQQKPGKAPKLLIYAASSLHSGVPSRFSGSGSGTDFTLTISSLQPEDFATYYCQQSYTTLALTFGGGTKVEIK
value observed: 2.36

Required: EC50, one value per binder below.
1. C947 (antibody, V domains shown) VH: QVQLQESGPGLVRPSGTLSLTCAVTGGSISSSDCWSWVRQPPGKGLEWIGEICHGRTSNYNPSLKSPVSISVDKSKNQFSLILSSVTAADKAVYYCARSSRFLPPLPDAFDLWGQGTMVTVSS VL: QSVLTQPPSVSGAPGQRVTISCTGSSSNIGAGYDVHWYKQLPGTAPKLLIYGNTNRPSGVPGRFSGSKSGTSASLAITGLQAEDEADYFCQSYDTRLSVVFGGGTKLT
2. C1039 (antibody, V domains shown) VH: QVQLVQSGAEVKKPGASVKVSCKASGYTFTSHYMHWVRQAPGQGLEWMGIINPRTRYAQMFQGRVSMNRDTSTSTVYMELSSLTSEDTAVYYCAREGLGATAYFDYWGQGTLVTVSS VL: SYELTQPPSVSVAPGKTAGITCGGSDIGSKSVHWYQQKPGQAPVLVVYDDSDRPSGIPERFSGSNSGNTATLTISRVEAGDEADYYCQVWDSSSDPYVFGTGTKVSVL

# output
[2.08, 2.61]

Required: EC50, one value per binder below.
1. C1024 (antibody, V domains shown) VH: QVQLVESGGGVVQPGRSLRLSCAASGFTFSDYAMHWVRQAPGKGLEWVAMISYDGNSQYYADSVKGRFTISRDNSKNTLYLQMNILRPEDTAVYYCARTFSIRIGHHDYWGQGTLVTVSS VL: NFMLTQPHSVSESPGKTVTISCTGSSGSIASNYVHWYQQRPGSAPTTVIFEDNQRPSGVPDRFSGSIDSSSNSASLTISGLKTEDEADYYCQSYDSSSFWVFGGGTKLTVL
2. C1035 (antibody, V domains shown) VH: EVQLVESGGGLIQPGGSLRLSCAASGLTVSRNYMNWVRQAPGKGLEWVSVMYSGGSTFYADSVKGRFTISRDNSKNTLYLQMNSLRAEDTAVYYCARESYGMDVWGQGTTVTVSS VL: EIVLTQSPGTLSLSPGERATLSCRASQSFSSTYLAWYQQKPGQAPRLLIYGASSRATGIPDRFSGSGSGTDFTLTISRLEPEDFAVYYCQQYVTSPWTFGQGTKVEIK
3. C1016 (antibody, V domains shown) VH: QVQLQESGPGLVKPSGTLSLTCAVSGGPISSNHWWSWVRQPPGKGLEWIGEVYRNGNTNYHPSLKSRVTMSIDNSKNQFSLSLTSVTAADTAVYYCARGGDLAMGPEYLDFWGQGTLVTVSS VL: QSALTQPASVSGSPGQSITISCTGTSSDVGANNYVSWYQQHPGKAPKLMIYDVINRPSGVSDRFSGSKSGNTASLTISGLQAEDEADYYCSSFSTSSTLLFGGGTKLTVL

# output
1: 2.37; 2: 2.05; 3: 2.16
